test_details: qHTS of pediatric cancer cell lines to identify multiple opportunities for drug repurposing: Primary screen for Rh30 cells (AID 1347107); also: % is scaled to controls: 0 for no effect and ±100 for the full control effect; nearly all actives have a fitted effect of over 75% in size
condition_context: Rh30 rhabdomyosarcoma viability, CellTiter-Glo luminescence, 48 h; series mostly up to 46 µM
Results filed as inconclusive are left out. Active and inactive are the calls of the source. Calls follow the shape of the dose curve; as a rule, active = well fitted cell-killing curve with a large enough effect; inconclusive = small, poorly fitted or top-dose-only effect; inactive = no such curve, though single readings can be large or run the other way.
quantity: outcome

The following compounds have reported results that may help.
CCCCc1ccc2nc(NC(=O)OC)[nH]c2c1 = inactive
O=C(CS(=O)Cc1ccco1)NCC=CCOc1cc(CN2CCCCC2)ccn1 (configuration not stated) = inactive
Cc1cc(=O)oc2cc(O)ccc12 = inactive
CC(S)C(=O)NCC(=O)O (configuration not stated) = inactive
O=C(O)c1cccnc1Nc1cccc(C(F)(F)F)c1 = inactive
CCCc1cc(=O)[nH]c(=S)[nH]1 = inactive

Consider the record given below.
What value of outcome has been reported for the following compound? `CCN(CC)CCOc1ccc(Cc2ccccc2)cc1` inactive

----------
system: Vitamin D3 receptor (Homo sapiens)
test_details: qHTS assay for small molecule agonists of vitamin D receptor signaling (AID 588543);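 also: 0% = DMSO basal and 100% = reference agonist control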
condition_context: HEK293T VDR-UAS-bla, beta-lactamase ratio, 16 h; series mostly up to 76.8 µM
Results filed as inconclusive are left out. The source made the active and inactive calls. Calls come from the whole dose curve.
quantity: outcome

Consider the worked cases shown below.
Nc1nc(Cl)nc2c1ncn2[C@H]1C[C@H](O)[C@@H](CO)O1 = inactive
NS(=O)(=O)c1cc(C(=O)O)c(NCc2ccco2)cc1Cl = inactive
N[C@@H](Cc1cc(I)c(Oc2cc(I)c(O)c(I)c2)c(I)c1)C(=O)O = inactive
c1ccc2[nH]c(-c3cscn3)nc2c1 = inactive
CNC[C@H](O)c1ccc(O)c(O)c1 = inactive

I would be grateful if you could provide outcome for each of the following entries.
1. CS(=O)(=O)OCCCCOS(C)(=O)=O
2. CCc1nc(N)nc(N)c1-c1ccc(Cl)cc1

inactive
inactive

----------
test_details: Quantitative High-Throughput drug screen in 47 multiple myeloma cell lines against the NCATS MIPE library collection: OCIMY7_PLB cell viability assay (AID 1918987); also: nearly all actives have a fitted effect of over 65% in size
condition_context: OCI-MY7 myeloma viability, CellTiter-Glo ATP, 48 h; series mostly up to 45.8 µM
Records with an inconclusive call do not appear. Calls of active or inactive are those of the source. The call rests on the fitted dose curve; in most records, active means well fitted cell-killing curve with a large enough effect; inconclusive means small, poorly fitted or top-dose-only effect, or effect the other way; inactive means no such curve, though single readings can be large or run the other way.
Allowed answers: active, inactive

Solved cases below.
Nc1ccc(S(N)(=O)=O)cc1 = inactive
O=C(OC1C[C@H]2CC[C@@H](C1)[N+]21CCCC1)C(O)(c1ccccc1)c1ccccc1 (some centres undefined) = inactive
O=Nc1c(-c2c(O)[nH]c3cc(Br)ccc23)[nH]c2ccccc12 = active
Cc1cc(O)c2c(c1)C(=O)c1cc(O)cc(O)c1C2=O = inactive
CCOC(=O)C(C)Oc1cccc2c(=O)n(CC(=O)Nc3ccc4c(c3)OCCO4)ccc12 (centres undefined) = inactive
O=c1ccc2ccc(O)c(O)c2o1 = active

Answer briefly: the call reported for `CCN(CC)C(=S)SSC(=S)N(CC)CC` in this assay. active

Recorded test outcome, item `CC(C)(S)[C@@H](N)C(=O)O` inactive

Test call, this compound: `Cc1cc2cc3c(C)cc(=O)oc3c(C)c2o1` active

Write down the call the test reported for this compound. Item: Nc1cccc2c1CN(C1CCC(=O)NC1=O)C2=O (centres undefined) active

What did the test return for `COc1ccccc1N1CCN(CCN(C(=O)C2CCCCC2)c2ccccn2)CC1` ? active

----------
Record form. Attribute: remaining parasite growth % (stronger effect = lower value). Fill in for each entry.
test_details: qHTS profiling for inhibitors of Plasmodium falciparum (3D7) proliferation (AID 743322);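 also: infected erythrocytes exposed to compound for 72 h before lysis; 100% = DMSO vehicle wells and 0% = 0.29 µM artemisinin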
condition_context: P. falciparum 3D7 proliferation; at 28.7 µM (top of the series) unless noted
Give bare numbers, in %.

CCOC(=O)C1=C(O)C(=O)N(Cc2ccccc2)C1 = 34
COc1cc(Nc2c(C#N)cnc3cc(OCCCN4CCN(C)CC4)c(OC)cc23)c(Cl)cc1Cl = -0.245
CCN(CC)C(=S)SSC(=S)N(CC)CC = 99.1
CCOC(=O)C(C)Oc1cccc2c(=O)n(CC(=O)Nc3ccc4c(c3)OCCO4)ccc12 (stereo unspecified) = 115
Cc1ccc(NC(=O)c2ccc(CN3CCN(C)CC3)cc2)cc1Nc1nccc(-c2cccnc2)n1 = 1.04
O=c1cc(N2CCOCC2)oc2c(-c3ccccc3)cccc12 = 105
CCc1nc(N)nc(N)c1-c1ccc(Cl)cc1 = -1.1

Next compound, remaining parasite growth % (stronger effect = lower value) to be filled in.
Record request: remaining parasite growth % (stronger effect = lower value) value, item `CCN(CC)CCOc1ccc(Nc2ncc3cc(-c4c(Cl)cccc4Cl)c(=O)n(C)c3n2)cc1` 0.673

----------
test_details: Quantitative High-Throughput drug screen in 47 multiple myeloma cell lines against the NCATS MIPE library collection: KMS27_JCRB cell viability assay (AID 1918970); also: nearly all actives have a fitted effect of over 30% in size
condition_context: KMS27 myeloma cells, CellTiter-Glo ATP viability, 48 h; series mostly up to 45.8 µM
Text: PI: Beverly A. Mock Ph.D. Laboratory of Cancer Biology and Genetics, Center for Cancer Research, National Cancer Institute, National Institute of Health, Bethesda, Maryland […] 5; Detector; 425V; Luminescence; Viewlux PerkinElmer. […] 1. […] Briefly, the corresponding myeloma cell lines were screened in 1,536-well plates with 500 cells, 5-uL per well for inhibition of cell viability (assessed by measuring ATP levels with CellTiterGlo). […]
Records with an inconclusive call do not appear. Calls of active or inactive are those of the source. Calls follow the shape of the dose curve; as a rule, active = well fitted cell-killing curve with a large enough effect; inconclusive = small, poorly fitted or top-dose-only effect, or effect the other way; inactive = no such curve, though single readings can be large or run the other way.
The reply should name one outcome from 1.0 = active, 0.0 = inactive

Known results for molecules:
O=C(NC(Cc1cc(=O)[nH]c2ccccc12)C(=O)O)c1ccc(Cl)cc1 (stereo not given) = 0.0
CC(C)(S)[C@@H](N)C(=O)O = 0.0
Nc1ncn([C@H]2C[C@H](O)[C@@H](CO)O2)c(=O)n1 = 0.0
O=c1cc(N2CCOCC2)oc2c(-c3ccccc3)cccc12 = 0.0

We now examine a further molecule.
What did this assay record as the result for `CC1(C)C(=O)N(CCN2CCC(C(=O)c3ccc(F)cc3)CC2)c2ccccc21` ? 1.0

----------
test_details: qHTS to identify inhibitors of the type 1 interferon - major histocompatibility complex class I in skeletal muscle: primary screen against the NCATS LOPAC collection (AID 1347405);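 also: human myoblasts with HiBiT tag on endogenous HLA-B stimulated by IFN-beta; lytic HiBiT luminescence reporting HLA-B protein level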
condition_context: iHSKM muscle cells, IFN-b-induced MHC-I HiBiT luminescence, 24 h; series mostly up to 45.9 µM
Results filed as inconclusive are left out. Active and inactive are the calls of the source. The call rests on the fitted dose curve; in most records, active means well fitted inhibition curve with a large enough effect; inconclusive means small, poorly fitted or top-dose-only effect; inactive means flat fitted curve, though single readings scatter.
One label from this list, please: YES = active, NO = inactive

These solved cases illustrate the format of a correct answer.
Cc1cc(O)c2c(c1)C(=O)c1cc(O)cc(O)c1C2=O = NO
O=C(CCc1ccc(O)cc1)c1c(O)cc(O)cc1O = NO

Please let me know the test result on file for `CN(C)C(=O)[C@H](O)[C@H](Cc1ccccc1)NC(=O)c1cc2cc(Cl)ccc2[nH]1` . NO

Look up the recorded call for `O=c1ccc2ccc(O)c(O)c2o1` in this test. NO

Assay outcome for `O=Nc1c(-c2c(O)[nH]c3cc(Br)ccc23)[nH]c2ccccc12` : what was it? YES

----------
Tested on: NIH3T3
test_details: Cytotoxic Profiling of Annotated Libraries Using Quantitative High-Throughput Screening (AID 1296008); also: % is scaled to controls: 0 for no effect and ±100 for the full control effect; nearly all actives have a fitted effect of over 60% in size
condition_context: Five cell lines viability, CellTiter-Glo ATP luminescence, 48-72 h; stronger effect = lower value
Inconclusive results are not listed. Non-standard residues stand in square brackets, D forms with d. Residues, ends and D or L forms follow the SMILES beside them. *: point of attachment. Sta = CC(C)C[C@H](N)[C@@H](O)CC(=O)O; Isovaleryl = CC(C)CC(=O)*
Exercise: for every item that follows, state its recorded max response.
One number for each entry, in %.

Below are worked cases with known answers.
CC(C)CC(=O)N[C@H](C(=O)N[C@H](C(=O)N[C@@H](CC(C)C)[C@@H](O)CC(=O)N[C@@H](C)C(=O)N[C@@H](CC(C)C)[C@@H](O)CC(=O)O)C(C)C)C(C)C (Isovaleryl-VV[Sta]A[Sta]-OH) = 0.118
Cc1ncc([N+](=O)[O-])n1CC(C)O (stereo not drawn) = 2.47
COC1=C(OC)C(=O)C(CCCCCCCCCCO)=C(C)C1=O = 4.9

Lab note: each compound below needs its max response filled in.
1. Cc1cccc(-c2[nH]ncc2-c2ccc3ncccc3n2)n1
2. Cc1ccc(NC(=O)c2ccc(CN3CCN(C)CC3)cc2)cc1Nc1nccc(-c2cccnc2)n1
3. Cc1cc2cc3c(C)cc(=O)oc3c(C)c2o1
4. COc1ccccc1N1CCN(CCN(C(=O)C2CCCCC2)c2ccccn2)CC1
5. CCC1=C(C)CN(C(=O)NCCc2ccc(S(=O)(=O)NC(=O)NC3CCC(C)CC3)cc2)C1=O (stereo not drawn)

1: -18.1; 2: -15.2; 3: -1.93; 4: -13.5; 5: 0.91

Need max response for each of these compounds.
1. CN1CCC(=C2c3ccccc3CCc3sccc32)CC1
2. O=C1CCc2ccc(OCCCCN3CCN(c4cccc(Cl)c4Cl)CC3)cc2N1
3. CCC(C)(Oc1ccc(C2(c3ccc(OC(C)(CC)C(=O)O)cc3)CCCCC2)cc1)C(=O)O (stereo not drawn)
4. CN(C)c1ccc(O)c2c1C[C@H]1C[C@H]3[C@H](N(C)C)C(=O)C(C(N)=O)=C(O)[C@@]3(O)C(=O)C1=C2O

[2.3, -18.1, -0.924, -2.91]

Below are some compounds; for each one, tell me its max response.
1. Clc1ccc2c(N3CCN(CCCN4CCN(c5ccnc6cc(Cl)ccc56)CC4)CC3)ccnc2c1
2. CCCCC(CC)COC(=O)C(C#N)=C(c1ccccc1)c1ccccc1 (stereo not drawn)
3. Cc1ccc(C(=O)c2cc(O)c(O)c([N+](=O)[O-])c2)cc1
4. c1cnc2cc3c(cc2n1)C1CNCC3C1
5. CCCS(=O)c1ccc2nc(NC(=O)OC)[nH]c2c1 (stereo not drawn)

1. -5.21
2. -1.9
3. 1.41
4. 4.61
5. -29.9

Report max response for each item below.
1. Cc1cccc(C#Cc2ccccc2)n1
2. O=c1ccc2ccc(O)c(O)c2o1
3. Cc1nc(-c2ccc(OCC(C)C)c(C#N)c2)sc1C(=O)O
4. Clc1ccc(C(Cn2ccnc2)OCc2ccc(Sc3ccccc3)cc2)c(Cl)c1 (stereo not drawn)

-0.211
-1.87
4.8
-3.29

Items follow; give max response for each.
1. COc1cc(OC)c(C(=O)CCCN2CCCC2)c(OC)c1
2. N[C@@H](Cc1cc(I)c(Oc2cc(I)c(O)c(I)c2)c(I)c1)C(=O)O

1: -4.19; 2: -14.5
